Target: neutrophil elastase (Homo sapiens, UniProt P08246 P08246:30-267)
Sequence (P08246 30-267, one chain of several): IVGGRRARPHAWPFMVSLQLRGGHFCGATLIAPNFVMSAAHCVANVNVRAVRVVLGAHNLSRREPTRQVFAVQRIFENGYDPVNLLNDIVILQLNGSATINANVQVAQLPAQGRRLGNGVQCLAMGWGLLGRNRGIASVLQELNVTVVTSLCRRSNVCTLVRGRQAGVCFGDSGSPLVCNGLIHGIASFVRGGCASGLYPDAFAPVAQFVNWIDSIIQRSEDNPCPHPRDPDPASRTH
Experiment: filter; specificity control, like random RNA; TBSC
Experimental: The affinity of sPLA_2 ligands 2, 72, 80, 87, NN19 and NN19.15 (SEQ ID NOs.:11, 20, 53, 54, 64, and 117, respectively) for proteins other than sPLA_2 was determined by nitrocellulose partitioning (Tables IV and V). Like sPLA_2, hen egg white lysozyme, bFGF and elastase are small, highly cationic proteins. […] *Standard binding experiments were performed to the specified target protein in TBSC and K_d's calculated by curve fitting. […]
Readout Name: pKd
Would you please state pKd, meaning minus log10 of the concentration in mol/L, as a bare number?

The binder listed as NN19.15 (ssRNA, 2'-NH2 all C and U) RNA: GGGAAAAGAAGACCGGCCGGCGCCAUAGCCGAGAUCCGAGGUGUUGCCGAGAA has a reported pKd of 7.40
